Reference for the values: the Human Domainome abundance scans (Beltran et al. 2025)

B1: Intersectin-1, residues 1156 to 1213; numbered along this chain, Q15811 (parent)
chain: AVCQVIGMYDYTAQNDDELAFNKGQIINVLNKEDPDWWKGEVNGQVGLFPSNYVKLTT

Variants of: B1
ASSAY_COMMENT: abundance fitness (aPCA) (normalised: wild type 0, dead -1); higher = more abundant; growth selection in yeast, the domain comes from the species named
CONDITION_CONTEXT: Homo sapiens
Parameter threshold = -0.6. Response is T when abundance fitness meets or exceeds it, else F.

Does the reported abundance fitness for AVCQVIGMYDYGAQNDDELAFNKGQIINVLNKEDPDWWKGEVNGQVGLFPSNYVKLTT [T12G] fall at or above the -0.6 mark?
T

Does the reported abundance fitness for AVCQVIGMYDYTAQNDDELAFNKGQIINVLNKEDPDWWKGEVNAQVGLFPSNYVKLTT [G44A] fall at or above the -0.6 mark?
T

Does the reported abundance fitness for AVCQVIGMYDYTAQNDDELAFNKGQIIKVLNKEDPDWWKGEVNGQVGLFPSNYVKLTT [N28K] fall at or above the -0.6 mark?
T

Does the reported abundance fitness for AVCQVIGMYDYTAQNDDELAFNKGQIINVLNKEDPDWWKGEVNGQVGDFPSNYVKLTT [L48D] fall at or above the -0.6 mark?
F

Does the reported abundance fitness for AVCQVIGMYDYTAQNDDELAFNKGQIINVLNKEDPDWWKGEVNGQVGLFPSNYHKLTT [V54H] fall at or above the -0.6 mark?
F

Does the reported abundance fitness for AVCQVIGMYDYTAQNDDELAFNKGQIINVLNKEDPDWWKGEVNGQVGLFPWNYVKLTT [S51W] fall at or above the -0.6 mark?
F

Does the reported abundance fitness for AVCQVIGMYDYTAQNDDELAFNKGQIINVLNKEDPDWWKGEVCGQVGLFPSNYVKLTT [N43C] fall at or above the -0.6 mark?
T

Does the reported abundance fitness for AVCQVIGMYDYTAQNDDELAFNKKQIINVLNKEDPDWWKGEVNGQVGLFPSNYVKLTT [G24K] fall at or above the -0.6 mark?
T

Does the reported abundance fitness for AVCQVIGMYDYTAQNDDELAFNKGQIINVLNKEDPDWWKGEVNGQVGLFPSNHVKLTT [Y53H] fall at or above the -0.6 mark?
T

Does the reported abundance fitness for AVCQVIGMYDYTAQNDDELAFNKGQIINVLNKEDPDWWKGEVNGWVGLFPSNYVKLTT [Q45W] fall at or above the -0.6 mark?
T

Does the reported abundance fitness for AVCQVIGMYDDTAQNDDELAFNKGQIINVLNKEDPDWWKGEVNGQVGLFPSNYVKLTT [Y11D] fall at or above the -0.6 mark?
F

Does the reported abundance fitness for AVCQVIGMYDYTAQNDDELAFNKGQIINVLNKEDPAWWKGEVNGQVGLFPSNYVKLTT [D36A] fall at or above the -0.6 mark?
T

Does the reported abundance fitness for AVCQVIGMYDYTAQNDDEIAFNKGQIINVLNKEDPDWWKGEVNGQVGLFPSNYVKLTT [L19I] fall at or above the -0.6 mark?
T

Does the reported abundance fitness for AVCQVIGMYDYTAQNDDELAFNKGQIINVLNKEDPDWWKGEVNGIVGLFPSNYVKLTT [Q45I] fall at or above the -0.6 mark?
T

Does the reported abundance fitness for AVMQVIGMYDYTAQNDDELAFNKGQIINVLNKEDPDWWKGEVNGQVGLFPSNYVKLTT [C3M] fall at or above the -0.6 mark?
T

Does the reported abundance fitness for AVCQVIGMYDYTVQNDDELAFNKGQIINVLNKEDPDWWKGEVNGQVGLFPSNYVKLTT [A13V] fall at or above the -0.6 mark?
F

Does the reported abundance fitness for AVCQVIGMYDYTAQNDDEEAFNKGQIINVLNKEDPDWWKGEVNGQVGLFPSNYVKLTT [L19E] fall at or above the -0.6 mark?
T

Does the reported abundance fitness for AVCQVIGMYDYTAQNDGELAFNKGQIINVLNKEDPDWWKGEVNGQVGLFPSNYVKLTT [D17G] fall at or above the -0.6 mark?
T

Does the reported abundance fitness for AVCQVIGMYDYTAQNDDELAFNKGQIINVLNKEDPDWWKGEVNDQVGLFPSNYVKLTT [G44D] fall at or above the -0.6 mark?
T

Does the reported abundance fitness for AVCQVIGMYDYTYQNDDELAFNKGQIINVLNKEDPDWWKGEVNGQVGLFPSNYVKLTT [A13Y] fall at or above the -0.6 mark?
T

Does the reported abundance fitness for AVCQVIGMYDYTAQNDDELAFNKGQIINVRNKEDPDWWKGEVNGQVGLFPSNYVKLTT [L30R] fall at or above the -0.6 mark?
F

Does the reported abundance fitness for AVCQVIGEYDYTAQNDDELAFNKGQIINVLNKEDPDWWKGEVNGQVGLFPSNYVKLTT [M8E] fall at or above the -0.6 mark?
T

Does the reported abundance fitness for AVCQVIGMYDYTAQNDDELAHNKGQIINVLNKEDPDWWKGEVNGQVGLFPSNYVKLTT [F21H] fall at or above the -0.6 mark?
F

Does the reported abundance fitness for AVCQVIGMYDYTAQNDDERAFNKGQIINVLNKEDPDWWKGEVNGQVGLFPSNYVKLTT [L19R] fall at or above the -0.6 mark?
F

Does the reported abundance fitness for AVCQVIGMYDYTAQNDDELAFNKGQIMNVLNKEDPDWWKGEVNGQVGLFPSNYVKLTT [I27M] fall at or above the -0.6 mark?
F

Does the reported abundance fitness for AVCQVIGMYDYTAQNDDELAFNKGQIINVLNKEDPDWWKGEVNGQVGLFPSNDVKLTT [Y53D] fall at or above the -0.6 mark?
F

Does the reported abundance fitness for AVCQVIGMYDYTAQNDDELAFNKGQIINVLNKKDPDWWKGEVNGQVGLFPSNYVKLTT [E33K] fall at or above the -0.6 mark?
T

Does the reported abundance fitness for AVCQVIGMYDYTAQNDDELAFNKGQIINVLNKEDPDWWKGEVNGQVGLFPENYVKLTT [S51E] fall at or above the -0.6 mark?
F

Does the reported abundance fitness for AVCQVIVMYDYTAQNDDELAFNKGQIINVLNKEDPDWWKGEVNGQVGLFPSNYVKLTT [G7V] fall at or above the -0.6 mark?
T

Does the reported abundance fitness for AVCQVIGMYDYTAQNDDELAFNKGQIINVLNKEDPDWWKGEVNGTVGLFPSNYVKLTT [Q45T] fall at or above the -0.6 mark?
T

Does the reported abundance fitness for AVCQVIGMYDYTAQNDDELAFNKGQIINVLNKEDPDSWKGEVNGQVGLFPSNYVKLTT [W37S] fall at or above the -0.6 mark?
F

Does the reported abundance fitness for AVCQVIGMEDYTAQNDDELAFNKGQIINVLNKEDPDWWKGEVNGQVGLFPSNYVKLTT [Y9E] fall at or above the -0.6 mark?
T

Does the reported abundance fitness for AVCQVIGMYDYTAQNDDELAFNKGQIINVLNKEDPDWWKGEVNGQVGLFPSNFVKLTT [Y53F] fall at or above the -0.6 mark?
T

Does the reported abundance fitness for AVCQVIGMYDYTAQHDDELAFNKGQIINVLNKEDPDWWKGEVNGQVGLFPSNYVKLTT [N15H] fall at or above the -0.6 mark?
T

Does the reported abundance fitness for AVCQVIGMYDYTAQNDDELAFNKGQIINVLNKEDPDWWKGEVNGQVGLFPSNYVLLTT [K55L] fall at or above the -0.6 mark?
T

Does the reported abundance fitness for AVCQVIGMYDYTAQNDDELAFNKGQIINTLNKEDPDWWKGEVNGQVGLFPSNYVKLTT [V29T] fall at or above the -0.6 mark?
F

Does the reported abundance fitness for AVCQVIGMYDYTAQNDDELHFNKGQIINVLNKEDPDWWKGEVNGQVGLFPSNYVKLTT [A20H] fall at or above the -0.6 mark?
T

Does the reported abundance fitness for AVCQVIGMYDYTAQNDDELAFNKGQIINVLNKEDPMWWKGEVNGQVGLFPSNYVKLTT [D36M] fall at or above the -0.6 mark?
T

Does the reported abundance fitness for AVGQVIGMYDYTAQNDDELAFNKGQIINVLNKEDPDWWKGEVNGQVGLFPSNYVKLTT [C3G] fall at or above the -0.6 mark?
T

Does the reported abundance fitness for AVCQVIGMYDYTAQNDDELAFNKGQIINVLNKEDPDWWKGEVNGCVGLFPSNYVKLTT [Q45C] fall at or above the -0.6 mark?
T

Does the reported abundance fitness for AVCQVIGMYDFTAQNDDELAFNKGQIINVLNKEDPDWWKGEVNGQVGLFPSNYVKLTT [Y11F] fall at or above the -0.6 mark?
T

Does the reported abundance fitness for AVCQVIGMYDYTAQNDDELAFNKGQIINVLNAEDPDWWKGEVNGQVGLFPSNYVKLTT [K32A] fall at or above the -0.6 mark?
T

Does the reported abundance fitness for AVCQVIGMYDYTAQNDDELAFNKGQIINVVNKEDPDWWKGEVNGQVGLFPSNYVKLTT [L30V] fall at or above the -0.6 mark?
T

Does the reported abundance fitness for AVCQVIGMYDYTAQNDDELAFNKGQIINVLNKEDPDWWKGEVNGQVGLFYSNYVKLTT [P50Y] fall at or above the -0.6 mark?
F

Does the reported abundance fitness for AVCQVIGMYDYTAQNIDELAFNKGQIINVLNKEDPDWWKGEVNGQVGLFPSNYVKLTT [D16I] fall at or above the -0.6 mark?
T
